Values from patent US20230150970A1

Form field: IC50 (one value per entry).
Molecular target: AhR (Homo sapiens, UniProt P35869)
Test: In Vitro Assay 1: XRE-luciferase reporter assay, antagonism in human cell line (HepG2)
Conditions: Assay 1: AhR-Luc Human Antagonism (IC50, nM), unmarked values: kynurenine 200 μM, 6 hours

CC1CN(S(=O)(=O)CCO)CCN1c1cc(-c2ccc(Cl)cc2)nc(-c2cccnc2)n1 (centres unmarked) : 10 to 100 nM
O=S(=O)(CCO)N1CCN(c2cc(-c3ccc(C(F)(F)F)cc3)nc(-c3cnsc3)n2)CC1 : 10 to 100 nM
Cn1cc(-c2nc(-c3ccc(Cl)cc3)cc(N3CCN(S(C)(=O)=O)CC3)n2)cn1 : 100 to 1000 nM
O[C@H]1CCN(c2cc(-c3ccc(Cl)cc3)nc(-c3cnc(F)c(F)c3)n2)C1 : > 1000 nM
Oc1ncccc1-c1nc(-c2ccc(N3CCOCC3)c(F)c2)cc(N2CC[C@H](O)C2)n1 : 10 to 100 nM
CS(=O)(=O)C1CCN(c2cc(-c3ccc(Cl)cc3)nc(-c3cccnc3)n2)CC1 : 10 to 100 nM
CN(C)CCNc1ccc(-c2cc(N3CC[C@H](O)C3)nc(-c3cccnc3)n2)cc1 : > 1000 nM

Field: next compound
Task: State the recorded IC50 for this entry: `OC[C@H]1CCN(c2cc(-c3ccc(C(F)(F)F)cc3)nc(-c3cccnc3)n2)C[C@@H]1F`
Result: < 10 nM

---

Target: AhR (Homo sapiens, UniProt P35869)
Sequence (P35869 11-848): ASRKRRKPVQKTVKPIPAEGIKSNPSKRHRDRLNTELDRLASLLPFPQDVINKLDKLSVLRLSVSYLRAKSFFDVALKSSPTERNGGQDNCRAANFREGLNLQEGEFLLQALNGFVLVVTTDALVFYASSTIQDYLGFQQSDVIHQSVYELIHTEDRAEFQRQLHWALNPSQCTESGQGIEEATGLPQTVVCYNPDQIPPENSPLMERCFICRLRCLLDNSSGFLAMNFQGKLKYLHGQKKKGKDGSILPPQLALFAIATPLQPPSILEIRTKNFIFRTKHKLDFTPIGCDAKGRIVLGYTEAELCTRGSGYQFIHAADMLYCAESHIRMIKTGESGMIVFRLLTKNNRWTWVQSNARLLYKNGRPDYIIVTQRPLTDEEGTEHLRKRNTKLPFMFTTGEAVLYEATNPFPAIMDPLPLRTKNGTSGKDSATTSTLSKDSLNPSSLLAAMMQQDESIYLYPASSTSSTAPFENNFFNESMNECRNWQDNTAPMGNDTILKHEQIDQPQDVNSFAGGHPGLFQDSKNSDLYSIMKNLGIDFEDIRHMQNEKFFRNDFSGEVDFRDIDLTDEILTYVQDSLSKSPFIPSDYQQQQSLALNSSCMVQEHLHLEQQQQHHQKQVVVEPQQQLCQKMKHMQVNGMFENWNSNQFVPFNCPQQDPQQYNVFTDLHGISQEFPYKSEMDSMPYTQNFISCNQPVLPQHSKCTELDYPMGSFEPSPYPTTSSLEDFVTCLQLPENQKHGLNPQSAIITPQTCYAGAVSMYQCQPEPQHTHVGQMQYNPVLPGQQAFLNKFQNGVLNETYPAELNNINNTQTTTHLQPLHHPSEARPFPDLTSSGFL
Assay: In Vitro Assay 1: XRE-luciferase reporter assay, antagonism in human cell line (HepG2)
Settings: Assay 1: AhR-Luc Human Antagonism (IC50, nM), values marked *: kynurenine 50 μM, 6 hours
Attribute Measured: IC50

See these solved cases before continuing.
Fc1ccccc1N1CCN(c2cc(-c3ccc(Cl)cc3)nc(-c3cccnc3)n2)CC1 [Example 85] : 100 to 1000 nM
OCC(CO)Nc1cc(-c2ccc(Cl)cc2)nc(-c2cccnc2)n1 [Example 16] : > 1000 nM
Clc1ccc(-c2cc(N3CCN(C(c4ccccc4)c4ccc(Cl)cc4)CC3)nc(-c3cccnc3)n2)cc1 (stereo not shown) [Example 124] : > 1000 nM

API: the following record is the query input.
Task: Item under review: Clc1ccc(-c2cc(NCC3CC3)nc(-c3cccnc3)n2)cc1 [Example 25] . Reported IC50?
Result: > 1000 nM

---

List of IC50 values.
Target: AhR (Homo sapiens, UniProt P35869)
Assay: In Vitro Assay 1: XRE-luciferase reporter assay, antagonism in human cell line (HepG2)
Settings: Assay 1: AhR-Luc Human Antagonism (IC50, nM), values marked *: kynurenine 50 μM, 6 hours

For orientation, consider the following solved cases.
O=C(CO)N1CCN(c2cc(-c3ccc(Cl)cc3)nc(-c3cccnc3)n2)CC1 [Example 223] : < 10 nM
C[C@@H]1CN(C(=O)c2ccccc2)CCN1c1cc(-c2ccc(Cl)cc2)nc(-c2cccnc2)n1 [Example 77] : > 1000 nM
OCC1CN(c2cc(-c3ccc(Cl)cc3)nc(-c3cccnc3)n2)CC1O (centres unmarked) [Example 236] : < 10 nM

Task: // returns reported IC50 for input COC[C@@H]1CCCN1Nc1cc(-c2ccc(Cl)cc2)nc(-c2cccnc2)n1 [Example 195]
Result: > 1000 nM

Task: // same read-out, input: OC[C@@H]1CN(c2cc(-c3ccc(Cl)cc3)nc(-c3cccnc3)n2)CCN1 [Example 98]
Result: > 1000 nM

Task: Please give the result for Clc1ccc(-c2cc(N3CCN(c4ccccn4)CC3)nc(-c3cccnc3)n2)cc1 [Example 89] too.
Result: 10 to 100 nM

Task: CN1CCC(CNc2cc(-c3ccc(Cl)cc3)nc(-c3cccnc3)n2)CC1 [Example 193] , same question.
Result: 100 to 1000 nM

Task: Again, but for COC(=O)CN1CCC(Nc2cc(-c3ccc(Cl)cc3)nc(-c3cccnc3)n2)CC1 [Example 171]
Result: 10 to 100 nM

---

Entries annotated with measured IC50
Biological target: AhR (Homo sapiens)
Test: In Vitro Assay 1: XRE-luciferase reporter assay, antagonism in human cell line (HepG2)
Conditions: Assay 1: AhR-Luc Human Antagonism (IC50, nM), unmarked values: kynurenine 200 μM, 6 hours

Task: Can you look up the measured IC50 of `Cn1nnc(-c2nc(-c3ccc(Cl)cc3)cc(N3CC[C@H](O)C3)n2)n1` for me?
Result: > 1000 nM

Task: Now consider `Cn1nnc(-c2nc(-c3ccc(Cl)cc3)cc(N3CCN(S(C)(=O)=O)CC3)n2)n1` .
Result: > 1000 nM

Task: Again, but for `O=S(=O)(CCO)N1CCN(c2cc(-c3ccc(Cl)cc3)nc(-c3cccnc3)n2)CC1`
Result: < 10 nM

Task: And the next one, `Cn1cc(-c2nc(-c3ccc(Cl)cc3)cc(N3CCC(CO)(S(C)(=O)=O)CC3)n2)cn1` ?
Result: 10 to 100 nM

Task: Same read-out for `OC[C@@H]1CCN(c2cc(-c3ccc(Cl)cc3)nc(-c3cccnc3)n2)C[C@H]1F` ?
Result: < 10 nM

---

Each item that follows carries a reported EC50.
Biological target: AhR (Homo sapiens, UniProt P35869)
Test: In Vitro Assay 3: XRE-luciferase reporter assay, agonism in human cell line (HepG2)
Type: cell-based
Set-up: endogenous in cells; host or cells: HepG2
Settings: class in brackets of the cell; HepG2, tryptophan free medium, 6 hours, no agonist; read-out: Assay 3: AhR-Luc Human Agonism (EC50)

Task: // returns reported EC50 for input `COCC(=O)NC1CCN(c2cc(-c3ccc(Cl)cc3)nc(-c3cccnc3)n2)CC1`
Result: > 10 µM

---

Target: AhR (Homo sapiens, UniProt P35869)
Assay: In Vitro Assay 1: XRE-luciferase reporter assay, antagonism in human cell line (HepG2)
Conditions: read-out: Assay 1: AhR-Luc Human Antagonism (IC50), unmarked values: kynurenine 200 μM, 6 hours
Attribute Measured: IC50

Task: Reported IC50 for `Cn1ccc(-c2cc(N3CCC(CO)CC3)nc(-c3cccnc3)n2)n1` : what is it?
Result: > 1000 nM

---

Target: AhR (Homo sapiens, UniProt P35869)
Sequence (P35869 11-848): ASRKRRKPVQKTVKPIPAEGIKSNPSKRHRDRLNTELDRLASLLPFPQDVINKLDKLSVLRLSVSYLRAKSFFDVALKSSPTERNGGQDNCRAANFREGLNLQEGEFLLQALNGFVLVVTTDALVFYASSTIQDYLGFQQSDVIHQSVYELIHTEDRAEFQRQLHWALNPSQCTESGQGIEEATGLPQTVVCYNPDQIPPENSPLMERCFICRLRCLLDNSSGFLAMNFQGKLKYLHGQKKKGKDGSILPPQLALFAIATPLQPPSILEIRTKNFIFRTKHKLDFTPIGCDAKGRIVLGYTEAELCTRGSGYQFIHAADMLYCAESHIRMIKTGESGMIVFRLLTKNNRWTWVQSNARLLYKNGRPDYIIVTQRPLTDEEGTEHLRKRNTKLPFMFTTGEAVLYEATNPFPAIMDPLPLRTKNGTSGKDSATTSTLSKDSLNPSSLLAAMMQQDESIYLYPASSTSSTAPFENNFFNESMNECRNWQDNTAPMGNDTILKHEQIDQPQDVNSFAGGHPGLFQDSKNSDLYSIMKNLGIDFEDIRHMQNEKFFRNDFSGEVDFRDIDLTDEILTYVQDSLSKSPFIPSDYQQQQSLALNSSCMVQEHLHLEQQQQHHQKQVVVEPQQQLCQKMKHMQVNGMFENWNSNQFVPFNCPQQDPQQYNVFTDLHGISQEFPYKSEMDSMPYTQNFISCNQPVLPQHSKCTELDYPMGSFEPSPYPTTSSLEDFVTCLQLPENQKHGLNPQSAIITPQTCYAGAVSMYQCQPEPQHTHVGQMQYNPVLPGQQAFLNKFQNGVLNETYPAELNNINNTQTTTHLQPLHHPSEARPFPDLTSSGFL
Assay: In Vitro Assay 1: XRE-luciferase reporter assay, antagonism in human cell line (HepG2)
Conditions: Assay 1: AhR-Luc Human Antagonism (IC50, nM), values marked *: kynurenine 50 μM, 6 hours
Attribute Measured: IC50

Some molecules with known IC50 results, for comparison:
NCC1CCCN(c2cc(-c3ccc(Cl)cc3)nc(-c3cccnc3)n2)C1 (centres unmarked) : > 1000 nM
OC1CCOC2CN(c3cc(-c4ccc(Cl)cc4)nc(-c4cccnc4)n3)CCC12 (centres unmarked) : 10 to 100 nM
Clc1ccc(-c2cc(N3CCC(c4cc(Cl)cc(Cl)c4)CC3)nc(-c3cccnc3)n2)cc1 : > 1000 nM
OCC1CCN(c2cc(-c3ccc(Cl)cc3)nc(-c3cccnc3)n2)CC1O (centres unmarked) : < 10 nM
CC1CC(C)CN(c2cc(-c3ccc(Cl)cc3)nc(-c3cccnc3)n2)C1 (centres unmarked) : > 1000 nM
CC1CCN(c2cc(-c3ccc(Cl)cc3)nc(-c3cccnc3)n2)CC1 : < 10 nM
Cc1ccc(N2CCN(c3cc(-c4ccc(Cl)cc4)nc(-c4cccnc4)n3)CC2)cc1 : > 1000 nM
O=C1CCN(c2cc(-c3ccc(Cl)cc3)nc(-c3cccnc3)n2)CC1 : 10 to 100 nM

Task: If you can, please state the reported IC50 value of `CN1CCN(c2cc(-c3ccc(Cl)cc3)nc(-c3cnn(C)c3)n2)CC1` .
Result: 100 to 1000 nM

Task: And CC1CCCN1c1cc(-c2ccc(Cl)cc2)nc(-c2cccnc2)n1 (centres unmarked) ?
Result: 100 to 1000 nM

Task: Okay, and `Cc1cccc(N2CCN(c3cc(-c4ccc(Cl)cc4)nc(-c4cccnc4)n3)CC2)c1` ?
Result: > 1000 nM
